- TARGET OR SYSTEM: Solute carrier organic anion transporter family member 1A1 (Rattus norvegicus)
- Sequence (P46720 whole entry): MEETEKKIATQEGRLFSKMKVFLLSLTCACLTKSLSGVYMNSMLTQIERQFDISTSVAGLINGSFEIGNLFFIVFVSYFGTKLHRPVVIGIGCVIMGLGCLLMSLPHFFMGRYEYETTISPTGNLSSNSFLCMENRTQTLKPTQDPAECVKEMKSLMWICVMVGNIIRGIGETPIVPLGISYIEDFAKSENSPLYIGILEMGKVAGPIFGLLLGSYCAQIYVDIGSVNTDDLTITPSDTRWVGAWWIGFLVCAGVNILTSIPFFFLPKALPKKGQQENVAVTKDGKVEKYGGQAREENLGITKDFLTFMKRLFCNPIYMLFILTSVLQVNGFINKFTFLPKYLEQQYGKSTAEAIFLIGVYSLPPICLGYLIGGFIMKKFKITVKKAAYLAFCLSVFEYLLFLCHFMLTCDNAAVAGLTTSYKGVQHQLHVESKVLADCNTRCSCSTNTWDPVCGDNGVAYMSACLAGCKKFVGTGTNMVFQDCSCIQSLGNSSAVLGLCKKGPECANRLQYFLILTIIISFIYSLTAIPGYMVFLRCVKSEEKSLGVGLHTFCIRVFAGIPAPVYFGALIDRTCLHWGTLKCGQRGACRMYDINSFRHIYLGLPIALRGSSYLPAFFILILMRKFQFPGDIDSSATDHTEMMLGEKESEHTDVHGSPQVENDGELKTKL
- ASSAY METHOD TEXT: TP_TRANSPORTER: inhibition of Ouabain uptake (Ouabain: 100 uM, Digitoxin: 100 uM) in Xenopus laevis oocytes
- Type: functional, cell-based, Oocyte
- Design: scale not given: the % may be the effect or the level left
- CONDITION DETAILS: probe Ouabain (100 uM), read-out: Activity
ASSAY ENDPOINT: activity at 100 µM (%)
Give bare numbers, in %.

Challenge: GET /values?readout=activity at 100 µM&system=Solute carrier organic anion transporter family member 1A1 (Rattus norvegicus)&item= C[C@H]1O[C@@H](O[C@H]2[C@@H](O)C[C@H](O[C@H]3[C@@H](O)C[C@H](O[C@H]4CC[C@@]5(C)[C@H](CC[C@@H]6[C@@H]5CC[C@]5(C)[C@@H](C7=CC(=O)OC7)CC[C@]65O)C4)O[C@@H]3C)O[C@@H]2C)C[C@H](O)[C@@H]1O
Response given: 29
